From: the Deep4Chem optical property database

assay.explanation: solvent given as SMILES
stated.conditions: in C1COCCO1
Values of emission maximum greater than or equal to 500 nm map to 1; values below map to 0.

Examples with answers:
[[record]]
smiles_notation = "COc1ccc(-c2ccc(-c3ccc(C#N)s3)s2)cc1"
class_label = 0

[[record]]
smiles_notation = "O=C(O)c1c2ccccc2nc2ccccc12"
class_label = 0

[[record]]
smiles_notation = "CC(C)(C)c1ccc(-c2nc3c4ccc(-c5ccc6ccc7cccc8ccc5c6c78)cc4c4cc(-c5ccc6ccc7cccc8ccc5c6c78)ccc4c3n2-c2ccc(C(C)(C)C)cc2)cc1"
class_label = 0


Exam item: decide whether the reported emission maximum for c1ccc(-c2cc(-c3ccccc3)cc(-c3ccccc3)c2)cc1 is at least 500 nm.
0

Hello, I need to know if Nc1cc(N)cc(-c2nc3ccccc3s2)c1 has measured emission maximum not below 500 nm. Thanks!
0

Is emission maximum for CN(C)c1ccc(-c2ccc3n2[B-](F)(F)[N+]2=C(c4ccccc4)C=CC2=C3C(F)(F)F)cc1 at or above 500 nm?
1
